test: Anti-ulcer activity: ulcer caused by aspirin; format: in vivo, rat (male Wistar); settings: 100 mg/kg I.P.; aspirin 192 mg/kg per os; standardised to control batch and cimetidine (index 1)
We label by threshold. Values of Ulcer index strictly beneath 0.7 are met. Values of 0.7 and up are not met.

Please review the following examples before continuing.
| compound | class |
| --- | --- |
| Cc1cc(C(=O)c2ccccc2Cl)cc(C)c1O[C@@H]1OC[C@@H](O)[C@H](O)[C@H]1O | met |
| Cc1cc(C(=O)c2ccccc2)cc([N+](=O)[O-])c1O[C@@H]1OC[C@@H](O)[C@H](O)[C@H]1O | met |

Lab log: compare recorded Ulcer index with 0.7; is it strictly lower for CC(=O)O[C@@H]1[C@@H](OC(C)=O)[C@H](Oc2ccc(C(=O)c3cccc([N+](=O)[O-])c3)cc2)OC[C@H]1OC(C)=O ?
not met

Please do the same for Cc1cc(O)ccc1C(=O)c1cc(C)c(O[C@@H]2O[C@H](CO)[C@@H](O)[C@H](O)[C@H]2O)c(C)c1 as well.
met

Try the compound O=C(c1ccc(Br)cc1)c1ccc(O[C@@H]2OC[C@@H](O)[C@H](O)[C@H]2O)cc1
not met
